- measurement parameters: octanol/water
property name: logPc
Give bare numbers.

Illustrative cases are given below, each with its answer.
{"columns": ["molecule", "logPc"],
 "data": [
  ["C=CCc1ccccc1OCC(O)CNC(C)C (stereo not given)", 0.25],
  ["C=CCOc1ccccc1OCC(O)CNC(C)C (stereo not given)", -0.13],
  ["COCCc1ccc(OCC(O)CNC(C)C)cc1 (stereo not given)", -1.1],
  ["COc1ccccc1OCCNCC(O)COc1cccc2[nH]c3ccccc3c12 (stereo not given)", 1.92]
]}

Lookup: Return logPc for the following molecule: CC(C)NCC(O)COc1ccc(COCCOC(C)C)cc1 (stereo not given)
Found: -1.22

###

- measurement parameters: buffer, pH 2
Grouping rule (log K): L (below 0.8), M (0.8 to below 1), H (1 or more)

Please review the entries below; each comes with its answer.
{"columns": ["compound", "label"],
 "data": [
  ["CC(=O)Oc1cc(C(C)C)c(OCCN(C)C)cc1C", "H"],
  ["NCCO", "L"],
  ["COCCc1ccc(OCC(O)CNC(C)C)cc1 (stereo not drawn)", "H"],
  ["CC(C)(C)NCC(O)COc1cccc2c1CC(O)C(O)C2 (stereo not drawn)", "L"],
  ["CN(C)Cc1ccccc1", "L"],
  ["COC(=O)[C@@H](N)Cc1ccc(O)cc1", "L"],
  ["Cc1cccc(C)c1NC(=O)C1CCCCN1C (stereo not drawn) [MEPIVACAINE]", "M"],
  ["NCC(O)c1ccc(O)cc1 (stereo not drawn)", "L"]
]}

Lookup: Which log K category applies to CC(=O)Oc1c(C)cc(OCC(O)CNC(C)C)c(C)c1C (stereo not drawn) here?
Found: H

Lookup: // return the class label for `CCN(CC)CCOC(=O)c1ccc(N)cc1`
Found: H

Lookup: For this compound, which bin applies? `C1COC(NC(C2CC2)C2CC2)=N1`
Found: M

###

- experimental protocol: physchem
- measurement parameters: octanol/water
I'd be grateful if you could share measured logP for these entries.
One number for each entry.

// worked examples, logP included
{"columns": ["compound", "logP"],
 "data": [
  ["CC(C)(C)NCC(O)COc1cccc2c1CC(O)C(O)C2 (configuration not stated) [NADOLOL]", 0.81],
  ["CC([C@H](O)c1ccccc1)N(C)C (some centres not stated) [METHYLEPHEDRINE]", 1.55],
  ["CN1CCC[C@H]1c1cccnc1 [NICOTINE]", 1.34],
  ["CC(C)(C)NC[C@H](O)COc1nsnc1N1CCOCC1 [TIMOLOL]", 2.12],
  ["CC(C)(C)NC[C@H](O)COc1ccccc1C1CCCC1 [PENBUTOLOL]", 4.62]
]}

Would you mind giving logP for every compound in the list below?
1. CN(C)Cc1ccccc1
2. CN1CCc2cccc3c2[C@H]1Cc1ccc(O)c(O)c1-3 [APOMORPHINE]

Found:
[1.91, 2.49]

###

- measurement parameters: buffer, pH 2
Could you please report measured log K for the items listed next?

Example entries and their recorded answers appear below.
{"columns": ["molecule", "observed measurement"],
 "data": [
  ["NCCc1c[nH]c2ccc(O)cc12", 1.15],
  ["C=CCc1ccccc1OCC(O)CNC(C)C (centres undefined)", -0.36],
  ["NCC(O)c1ccc(O)cc1 (centres undefined)", 1.15]
]}

Could you now look at the following molecule, please?
Lookup: Read off the recorded log K for `CC(=O)Oc1cc(C(C)C)c(OCCN(C)C)cc1C`
Found: -0.86
